# Test system: SK-MEL-2
# run description: NCI tumour cell line growth inhibition, 48 h
Calls of active or inactive are those of the source. Cut-off read from the data, not from the text of the source: active = GI50 up to about 1.1 µM and inactive = higher.
Choose one outcome from this list and give only that: yes (1) (active), no (0) (inactive)

Past entries and their recorded results:
{"compound": "O=[N+]([O-])c1ccc(/C=C/c2csnn2)cc1", "qualitative label": "no (0)"}
{"compound": "C=C(C(=O)OC)[C@@H]1C[C@@H](OC(C)=O)C2=C[C@H](C[C@@]3(C)O[C@@H]3C3=CC(C)=C(O3)[C@H]1OC(C)=O)OC2=O", "qualitative label": "no (0)"}
{"compound": "COc1c(O)cc2c(c1O)C1O[C@H](CO)C(O)[C@H](O)[C@H]1OC2=O (stereo not given in full)", "qualitative label": "no (0)"}
{"compound": "Cc1ccsc1/C=N/Nc1nc2ccccc2s1", "qualitative label": "no (0)"}
{"compound": "COC1CCC(O)C(CO)O1 (stereo not given)", "qualitative label": "no (0)"}

Lookup: Short answer needed: outcome of this test for CC(=O)N1C(c2[nH]c3ccccc3c2-c2ccccc2)CCN1c1ccccc1 (stereo not given) ?
Found: no (0)

Lookup: Now consider Cc1ccc(/N=N/c2ccc(N)cc2C)c(S(N)(=O)=O)c1 and answer again.
Found: no (0)

Lookup: One more compound: COP(C)(=O)C1=CCN(C(=O)OCC[Si](C)(C)C)CC1 (stereo not given)
Found: no (0)

Lookup: Now the compound [O-][S+]1CSSC1
Found: no (0)

Lookup: Record: CC1(Br)C(=O)NC(=O)N(C2CC(N=[N+]=[N-])C(CO)O2)C1N=[N+]=[N-] (stereo not given)
Found: no (0)

Lookup: // query: COc1cc(C2C(Cl)C(=O)N2n2cnc3ccccc3c2=O)ccc1O (stereo not given)
Found: no (0)

* * *

# System: SNB-75
# run description: NCI tumour cell line growth inhibition, 48 h
The source made the active and inactive calls. Rule as the data show it: active = GI50 up to about 1.1 µM and inactive = higher.
Just give me one of these, please: 1 = active, -1 = inactive

Example results:
{"compound": "O=C(O)c1nc2ccccc2nc1NCc1ccc(F)cc1", "qualitative label": -1}
{"compound": "O=C(Nc1cccc2ccccc12)c1cc2ccccc2oc1=O", "qualitative label": -1}

Next up:
Lookup: Recorded test outcome, item CC1=C(N2CC2)C(=O)c2nc3n(c2C1=O)CCC3O (stereo not drawn)
Found: 1

* * *

# Test system: SK-MEL-5
# run description: NCI tumour cell line growth inhibition, 48 h
Calls of active or inactive are those of the source. Rule as the data show it: active = GI50 up to about 1.1 µM and inactive = higher.
Kindly state GI50 for each of the entries shown.

{"molecule": "CN1C/C(=C\\c2cccs2)C(O)/C(=C/c2cccs2)C1 (stereo not drawn)", "measured result": "> 100 µM (inactive)"}
{"molecule": "Cn1c(=O)oc2cc(C(=O)CSC(=S)N3CCCCCC3)ccc21", "measured result": "> 100 µM (inactive)"}
{"molecule": "COC(=O)c1ccc(CCc2cc(O)c(Br)cc2O)cc1", "measured result": "11.5 µM (inactive)"}

State the recorded GI50 for every item in the following list.
1. C[C@]12CC[C@H]3[C@@H](CCC4=CC(=O)CC[C@@]43C)[C@@H]1CC[C@@H]2C(=O)Nc1ccc([N+](=O)[O-])c(C(F)(F)F)c1
2. COc1ccc(NC(=O)CSc2nnc(-c3ccc(/N=C\c4ccc(Cl)cc4)cc3)o2)cc1
3. N#CCCN(CCC#N)c1ccc(C(=O)NN)cc1
4. CNCC(=O)Nc1ccc2c(c1)C(=O)c1ccc(NC(=O)CNC)cc1C2=O
5. O=C(O)Cc1cc(Cl)ccc1O

Found:
1: 14.3 µM (inactive); 2: 27.3 µM (inactive); 3: > 100 µM (inactive); 4: 4.68 µM (inactive); 5: > 100 µM (inactive)

* * *

# Tested on: KM-20L2
# run description: NCI tumour cell line growth inhibition, 48 h
Activity calls are given as the source filed them. No stated cut-off is given here; in the data, active = GI50 up to about 1.1 µM and inactive = higher.
Exercise: state measured GI50 for each of the compounds provided.

{"compound": "C=C(COC(C)=O)CC(OC(C)=O)c1ccccc1 (configuration not stated)", "GI50": "> 100 µM (inactive)"}
{"compound": "Cc1ccc(S(=O)(=O)N(/N=C(\\N)Oc2ccc(Cl)cc2)C(=N)Oc2ccc(Cl)cc2)cc1", "GI50": "> 100 µM (inactive)"}
{"compound": "CCOC(=O)N1C/C(=C\\c2ccccc2)C(=O)/C(=C/c2ccccc2)C1", "GI50": "7.71 µM (inactive)"}
{"compound": "CC(C)(C)N1CC1CNC(=O)C(=O)NCC1CN1C(C)(C)C (configuration not stated)", "GI50": "1.65 µM (inactive)"}
{"compound": "COc1ccc(-c2oc3c(OC)c(OC)c(OC)c(O)c3c(=O)c2OC)cc1O", "GI50": "12.1 µM (inactive)"}
{"compound": "O=C1CCC[C@]2(CCCC(=O)N2)C1", "GI50": "> 100 µM (inactive)"}
{"compound": "O=C(Nc1cccc(Cc2cccc(NC(=O)c3ccccc3)c2)c1)c1ccccc1", "GI50": "> 100 µM (inactive)"}
{"compound": "CSc1snc2sc3c(Cl)nnnc3c12", "GI50": "14 µM (inactive)"}

Quick batch: GI50 for everything below.
1. [O-][S+]1CSSC1
2. CC1(c2ccccc2Cl)C(C#N)C(=O)NC(=O)C1C#N (configuration not stated)
3. COC(=O)/C(=N\NC(=O)C[N+](C)(C)C)C(C(=O)OC)C(=O)C(=O)Nc1ccccc1C(N)=O (configuration not stated)

Found:
1: 22.8 µM (inactive); 2: 36.1 µM (inactive); 3: > 100 µM (inactive)

* * *

# Test system: A498
# run description: NCI tumour cell line growth inhibition, 48 h
The source made the active and inactive calls. Cut-off read from the data, not from the text of the source: active = GI50 up to about 1.1 µM and inactive = higher.
Assign a class; possible classes are active, inactive

{"molecule": "O=C(Nc1cccc2ccccc12)c1cc2ccccc2oc1=O", "qualitative label": "inactive"}
{"molecule": "CN1C/C(=C\\c2cccs2)C(O)/C(=C/c2cccs2)C1 (centres undefined)", "qualitative label": "inactive"}
{"molecule": "c1cc(N(CCn2cccn2)CCn2cccn2)cc(N(CCn2cccn2)CCn2cccn2)c1", "qualitative label": "inactive"}

Lookup: Recorded test outcome, item CCOC(=O)C(CS)NC(=O)CCCCCCCC(=O)NC(CS)C(=O)OCC (centres undefined)
Found: inactive

Lookup: Further, for O=C(O)c1ccccc1/C=C1\Cc2ccccc2C1=O ?
Found: inactive

* * *

# Test system: HCC 2998
# run description: NCI tumour cell line growth inhibition, 48 h
Active and inactive are the calls of the source. Rule as the data show it: active = GI50 up to about 1.1 µM and inactive = higher.
Reply using exactly one outcome from True = active, False = inactive

Previously resolved entries follow.
{"molecule": "Cc1c2c(n3c(nc4ccccc43)c1C#N)N(c1ccc(Cl)cc1)CC2", "qualitative label": "False"}
{"molecule": "O=C(n1[nH]c(=O)n(-c2ccc([N+](=O)[O-])cc2)c1=O)C(Cl)(Cl)Cl", "qualitative label": "False"}
{"molecule": "NCCCCN(CCCN)C(=O)OCc1ccccc1", "qualitative label": "False"}
{"molecule": "C[C@]12CC[C@H]3[C@@H](CCC4=CC(=O)CC[C@@]43C)[C@@H]1CC[C@@H]2C(=O)Nc1ccc([N+](=O)[O-])c(C(F)(F)F)c1", "qualitative label": "False"}
{"molecule": "CC1(C)CC(N2CCN(C3CC(C)(C)NC(C)(C)C3)CC2)CC(C)(C)N1", "qualitative label": "False"}

Lookup: Recorded call for O=C(Nc1cccc2ccccc12)c1cc2ccccc2oc1=O ?
Found: False

Lookup: Check CCCCCCCCCCCCCCCCCC(=O)Nc1ccn(C2OC(CO)C(O)C2O)c(=O)n1 (stereo not given) too.
Found: False

Lookup: Next molecule: CC(NNC(=O)c1cc[n+]([BH2-]C#N)cc1)c1ccccc1F (stereo not given)
Found: False

Lookup: Note, next up: Cc1c(Cl)ccc2c1NC(=O)C2(O)CC(=O)c1cccc2ccccc12 (stereo not given)
Found: False

Lookup: Item: c1cc2nnc1SCCSCCCSCCS2
Found: False

Lookup: Again, but for C#CCSc1nc(-c2ccco2)n[nH]1
Found: False

Lookup: Another: COP(C)(=O)C1=CCN(C(=O)OCC[Si](C)(C)C)CC1 (stereo not given)
Found: False

Lookup: Query O=C(O)CC(NC(=O)/C(=C/c1ccccc1)NC(=O)c1ccccc1)C(=O)O (stereo not given) next
Found: False

Lookup: Then what about the molecule Cc1nn2c(C(=O)N/N=C/c3ccc([N+](=O)[O-])cc3)c(C)nc2s1 ?
Found: False

Lookup: Likewise for COc1cc2c(cc1OC)CCN=C2 ?
Found: False

Lookup: Try this molecule too: O=C(O)Cc1cc(O)c(CC(=O)O)cc1O
Found: False

Lookup: Now consider COC1(OC)N=C(N)C2(C#N)/C(=N/N(C)C)CC(C)C12C#N (stereo not given) and answer again.
Found: False

Lookup: Can you check COC1CCC(O)C(CO)O1 (stereo not given) next?
Found: False
